# Target or system: human AR (Homo sapiens)
# Construct: expressed in transfected cells; host or cells: COS-1
# Sequence (P10275 1-920): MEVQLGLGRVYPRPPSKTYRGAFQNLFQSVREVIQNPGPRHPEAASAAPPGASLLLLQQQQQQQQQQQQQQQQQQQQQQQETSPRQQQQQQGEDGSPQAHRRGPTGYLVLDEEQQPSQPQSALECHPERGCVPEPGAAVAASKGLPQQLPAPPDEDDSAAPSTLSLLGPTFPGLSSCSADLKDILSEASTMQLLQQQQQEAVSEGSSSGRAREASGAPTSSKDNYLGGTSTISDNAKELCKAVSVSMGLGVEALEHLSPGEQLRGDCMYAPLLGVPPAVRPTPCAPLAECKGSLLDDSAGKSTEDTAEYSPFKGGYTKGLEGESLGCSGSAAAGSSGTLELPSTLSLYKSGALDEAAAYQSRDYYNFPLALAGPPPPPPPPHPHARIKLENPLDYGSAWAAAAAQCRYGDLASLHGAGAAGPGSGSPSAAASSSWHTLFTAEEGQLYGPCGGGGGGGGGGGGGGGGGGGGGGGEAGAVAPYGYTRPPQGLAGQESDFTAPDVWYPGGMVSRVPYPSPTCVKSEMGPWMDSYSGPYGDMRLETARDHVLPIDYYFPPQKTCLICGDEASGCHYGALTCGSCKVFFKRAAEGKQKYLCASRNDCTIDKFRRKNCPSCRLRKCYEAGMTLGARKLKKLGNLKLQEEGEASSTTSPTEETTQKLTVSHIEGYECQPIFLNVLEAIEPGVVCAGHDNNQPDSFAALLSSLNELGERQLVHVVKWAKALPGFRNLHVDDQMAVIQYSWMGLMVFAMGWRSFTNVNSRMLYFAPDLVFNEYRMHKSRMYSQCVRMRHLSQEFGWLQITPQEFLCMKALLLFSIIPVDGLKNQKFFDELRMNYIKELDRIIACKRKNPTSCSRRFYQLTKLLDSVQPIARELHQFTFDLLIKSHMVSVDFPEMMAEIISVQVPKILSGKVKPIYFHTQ
# Test: Competitive AR binding assay against [3H]-R1881 in transiently transfected COS-1 cells
# Condition summary: Table 1; compound 13.4 μM; [3H]-R1881 1.34 nM; complete inhibition equals 100%; read-out: Inhibition of [3H]-R1881 binding at 1.34 nM ± S.D.
Assay metric: inhibition at 13.4 µM (%)

INSERT INTO assay_data (compound, assay_metric, readout_number) VALUES
  ('CC(C)CN1C(CCc2ccccc2)=NOC1(C)Cc1ccccc1 (centres unmarked) [Example 66ab]', 'inhibition at 13.4 µM', 17.8),
  ('CC1(Cc2ccccc2)CC(c2ccccc2Cl)=NO1 (centres unmarked) [Example 5a]', 'inhibition at 13.4 µM', 42.7),
  ('CCCCN1C(Cc2ccccc2)=NOC1(C)Cc1ccccc1 (centres unmarked) [Example 55a]', 'inhibition at 13.4 µM', 35.1);

[a] CC1(Cc2ccccc2)CC(c2ccccc2F)=NO1 (centres unmarked) [Example 4ab]
[b] CCCCN1C(c2cccc3ccccc23)=NOC1(C)Cc1ccccc1 (centres unmarked) [Example 53ab]
Enquiry: Record comparison, field inhibition at 13.4 µM: mark the lower of a and b . Provide the label of your selected option as the answer.
Return: b
(b: 29.8%, a: 69.9%)

* * *

# Target or system: human AR (Homo sapiens)
# Construct: expressed in transfected cells; host or cells: COS-1
# Test: AR antagonism assay: inhibition of transcriptional activation of AR (Probasin-luc reporter, COS-1 cells)
# Type: cell-based
# Condition summary: compound 10.0 μM; relative luciferase response: 100% for testosterone (no antiandrogenic effect), 0% for complete antagonism
Assay metric: AR antagonism against 100 nM testosterone ± S.D. (%)

INSERT INTO results (compound, measurement_unit, readout_number) VALUES
  ('Oc1ccc(C2=NOC3CCCCC23)cc1 (stereo not drawn) [Example 26b]', '%', 41.0);

[1] Clc1ccc(C2=NOC3CCCCC23)cc1 (single isomer, unassigned) [Example 32a]
[2] N#Cc1ccc(C2=NOC3CCCCC23)c(C(F)(F)F)c1 (stereo not drawn) [Example 89b]
Enquiry: Record comparison, field AR antagonism against 100 nM testosterone ± S.D.: mark the lower of 1 and 2 . Provide the label of your selected option as the answer.
Return: 2

* * *

# Target or system: human AR (Homo sapiens)
# Construct: expressed in transfected cells; host or cells: COS-1
# Test: Competitive AR binding assay against [3H]-R1881 in transiently transfected COS-1 cells
# Condition summary: Table 2; compound 13.4 μM; [3H]-R1881 1.34 nM; complete inhibition equals 100%; read-out: Inhibition of [3H]-R1881 binding at 1.34 nM ± S.D.
Assay metric: inhibition at 13.4 µM (%)

INSERT INTO results (compound, measurement_unit, readout_number) VALUES
  ('Fc1ccc(C2=NOC3CCCCC23)cc1C(F)(F)F (stereo not shown) [Example 35ab]', '%', 88.5),
  ('O=[N+]([O-])c1ccc(C2=NOC3CCCCCC23)c(C(F)(F)F)c1 (stereo not shown) [Example 42a]', '%', 90.5),
  ('N#Cc1ccc(C2=NOC3CCCC23)cc1C(F)(F)F (single isomer, unassigned) [Example 85a]', '%', 87.6),
  ('Fc1ccc(C2=NOC3CCCCCC23)c(C(F)(F)F)c1 (stereo not shown) [Example 40a]', '%', 88.8);
